experiment: in vitro; conditions: human
recorded metric: selectivity ratio

>>> measured("CCC(C)C1OC2(CCC1C)CC1CC(CC=C(C)C(OC(=O)Cn3cc(COC(=O)CCC(=O)OC4OC5OC6(C)CCC7C(C)CCC(C4C)C57OO6)nn3)C(C)C=CC=C3COC4C(O)C(C)=CC(C(=O)O1)C34O)O2 (stereo not shown) [compound 16, Ivermectin–Artesunate Conjugate]")
"> 256"

----------
Known MDA-MB-231 SI of a selection of molecules
system: MDA-MB-231, human triple-negative breast cancer cell line; test: Antiproliferative activity, MTT assay; type: cell-based; conditions: SI = IC50 HaCaT/IC50 MDA-MB-231
recorded metric: MDA-MB-231 SI

>>> measured("CCC(C)C1OC2(CCC1C)CC1CC(CC=C(C)C(OC(=O)OCC3OC(n4cc(C)c(=O)[nH]c4=O)CC3N=[N+]=[N-])C(C)C=CC=C3COC4C(O)C(C)=CC(C(=O)O1)C34O)O2 (centres unmarked) [compound 11, Ivermectin–Azidothymidine Conjugate]")
2.1
>>> measured("C[C@H]1[C@H](OC(=O)CCC(=O)O)O[C@@H]2O[C@@]3(C)CC[C@H]4[C@H](C)CC[C@@H]1[C@@]24OO3 [artesunate, reference compound]")
0.5
>>> measured("C=C[C@H]1CN2CC[C@H]1C[C@@H]2[C@@H](OC(=O)O[C@@H]1/C(C)=C/C[C@@H]2C[C@@H](C[C@]3(CC[C@H](C)[C@@H]([C@@H](C)CC)O3)O2)OC(=O)[C@@H]2C=C(C)[C@@H](O)[C@H]3OC/C(=C\\C=C\\[C@@H]1C)[C@]32O)c1ccnc2ccc(OC)cc12 [compound 5, Ivermectin–Quinidine Conjugate]")
1.5
>>> measured("C=C[C@H]1CN2CC[C@H]1C[C@H]2[C@H](OC(=O)O[C@@H]1/C(C)=C/C[C@@H]2C[C@@H](C[C@]3(CC[C@H](C)[C@@H]([C@@H](C)CC)O3)O2)OC(=O)[C@@H]2C=C(C)[C@@H](O)[C@H]3OC/C(=C\\C=C\\[C@@H]1C)[C@]32O)c1ccnc2ccccc12 [compound 7, Ivermectin–Cinchonidine Conjugate]")
2.2
>>> measured("O=c1[nH]c(=O)n([C@H]2C[C@H](O)[C@@H](CO)O2)cc1F [floxuridine, reference compound]")
1.1
>>> measured("CC[C@H](C)[C@H]1O[C@]2(CC[C@@H]1C)C[C@@H]1C[C@@H](C/C=C(\\C)[C@@H](O[C@H]3C[C@H](OC)[C@@H](O[C@H]4C[C@H](OC)[C@@H](O)[C@H](C)O4)[C@H](C)O3)[C@@H](C)/C=C/C=C3\\CO[C@@H]4[C@H](O)C(C)=C[C@@H](C(=O)O1)[C@]34O)O2 [compound 1, Ivermectin]")
1.4
